Ref: patent US20240270821A1

Biological target: T1, human GIP receptor (human) (UniProt P48546)
T1 sequence (looked up): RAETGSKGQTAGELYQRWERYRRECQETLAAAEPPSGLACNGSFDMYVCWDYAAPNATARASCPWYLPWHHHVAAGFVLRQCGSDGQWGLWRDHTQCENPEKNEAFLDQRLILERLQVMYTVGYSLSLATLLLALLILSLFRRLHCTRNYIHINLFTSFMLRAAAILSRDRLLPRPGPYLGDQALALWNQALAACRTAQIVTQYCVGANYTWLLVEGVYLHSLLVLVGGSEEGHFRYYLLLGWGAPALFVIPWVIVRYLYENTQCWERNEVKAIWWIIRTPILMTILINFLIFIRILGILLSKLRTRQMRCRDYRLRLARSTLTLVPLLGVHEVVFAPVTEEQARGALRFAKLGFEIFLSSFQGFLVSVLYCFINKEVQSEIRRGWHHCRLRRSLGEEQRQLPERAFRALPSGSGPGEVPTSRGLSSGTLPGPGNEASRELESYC
Assay: cell-based or functional assay
Starred links: 1 amine or outer side, 2 acyl side, 3 side chain; linkers in the order of their positions; H or OH if unused. Non-standard residues stand in square brackets, D forms with d. Groups on a side chain read outwards from the residue. No end group written: not given here. *: point of attachment. C20 diacid = O=C(O)CCCCCCCCCCCCCCCCCCC(=O)*; γGlu = O=C(O)[C@H](CCC(=O)[*:2])N[*:1]; NMeY = CN[C@@H](Cc1ccc(O)cc1)C(=O)O; αMeF = C[C@](N)(Cc1ccccc1)C(=O)O; αMeL = CC(C)C[C@](C)(N)C(=O)O; AEEA = NCCOCCOCC(=O)O; Aib = CC(C)(N)C(=O)O
Threshold check on Relative cAMP EC50: at or above 0.1 nM gives y, strictly below gives n.

INSERT INTO results (binder, group) VALUES
  ('YXQGTFTSDXSKXLDKKAQXAFIEYLIEXGPSSGAPPPSGSEEE (synthetic construct; SITE 2: note = 2-Aminoisobutyric Acid; SITE 10: note = 3-(4-Pyridyl)-L-alanine; SITE 13: note = alpha-methyl-leucine; SITE 17: note = Lysine is chemically modified through conjugation of the epsilon-amino group of the Lysine side chain with (2-[2-(2-Amino-ethoxy)-ethoxy]-acetyl)) [Example 903]', 'y'),
  ('[NMeY][Aib]QGT[αMeF]TSDYSSLLDKIAAK([AEEA-AEEA-γGlu-C20 diacid])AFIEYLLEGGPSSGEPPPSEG-NH2 [Example 297]', 'y'),
  ('YXQGTFTSDFSXXLDKKAQXAFIEYLLAGGPSSGAPPPSGT (synthetic construct; SITE 2: note = 2-Aminoisobutyric Acid; SITE 12: note = L-ornithine; SITE 13: note = alpha-methyl-leucine; SITE 17: note = Lysine is chemically modified through conjugation of the epsilon-amino group of the Lysine side chain with (2-[2-(2-Amino-ethoxy)-ethoxy]-acetyl)-(gamma-Glu)) [Example 87]', 'y'),
  ('YXQGTFTSDFSXXLDKKAQXAFIEYLLAGGPSSGEPPPSGS (synthetic construct; SITE 2: note = 2-Aminoisobutyric Acid; SITE 12: note = L-ornithine; SITE 13: note = alpha-methyl-leucine; SITE 17: note = Lysine is chemically modified through conjugation of the epsilon-amino group of the Lysine side chain with (2-[2-(2-Amino-ethoxy)-ethoxy]-acetyl)-(gamma-Glu)) [Example 94]', 'y'),
  ('YXQGTXTSDXSILLDXKAQXXFIEXLEEGGPSSGAPPPSGTGE (synthetic construct; SITE 2: note = 2-Aminoisobutyric Acid; SITE 6: note = alpha-methyl-2-fluoro-L-phenylalanine; SITE 10: note = 3-(4-Pyridyl)-L-alanine; SITE 16: note = L-ornithine; SITE 17: note = Lysine is chemically modified through conjugation of the epsilon-amino group of the Lysine side chai) [Example 674 (SEQ ID NO: 680)]', 'n'),
  ('YXQGTFTSDFSXXLDXKAQXAFIEXLLAGGPSSGAPPPEGSEE (non-natural residues, (γGlu)2-C18 diacid lysine acylation, C-terminal amide; synthetic construct; SITE 2: note = 2-Aminoisobutyric Acid; SITE 12: note = L-ornithine; SITE 13: note = alpha-methyl-leucine; SITE 16: note = L-ornithine; SITE 17: note = Lysine is chemically modified through conjugation of the epsilon-amino group of the Lysine side chain with (gamma-Glu)2-CO-(CH2)) [Example 1053]', 'y'),
  ('YXQGTFTSDFSXXLDKKAQXAFIEYLLEGGPSSGAPPPSGT (synthetic construct; SITE 2: note = 2-Aminoisobutyric Acid; SITE 12: note = L-ornithine; SITE 13: note = alpha-methyl-leucine; SITE 17: note = Lysine is chemically modified through conjugation of the epsilon-amino group of the Lysine side chain with (gamma-Glu)2-CO-(CH2)16-CO2H; SITE 20: note = 2-Am) [Example 260]', 'y'),
  ('YXQGTFTSDFSXXLDKKAQXAFIEYLLEAGPSSGAPPPSGS (Aib, Orn, αMeL, D-Ala, acylated Lys, C-terminal amide; synthetic construct; SITE 2: note = 2-Aminoisobutyric Acid; SITE 12: note = L-ornithine; SITE 13: note = alpha-methyl-leucine; SITE 17: note = Lysine is chemically modified through conjugation of the epsilon-amino group of the Lysine side chain with (2-[2-(2-Amino-ethoxy)-ethoxy]-acetyl)-(gamma-Glu)) [Example 209]', 'y'),
  ('YXQGTXTSDXXIXLDXKAQXEFIEXLIEGGPPSXEPPPEGE (non-natural residues, acylated Lys, C-terminal amide; synthetic construct; SITE 2: note = 2-Aminoisobutyric Acid; SITE 6: note = alpha-methyl-2-fluoro-L-phenylalanine; SITE 10: note = 3-(4-Pyridyl)-L-alanine; SITE 11: note = alpha-methyl-L-serine; SITE 13: note = alpha-methyl-leucine; SITE 16: note = L-ornithine; SITE 17: note = Lysine is chemically mo) [Example 1190]', 'n'),
  ('Y[Aib]QGTFTSDYSK[αMeL]LDKKAQQAFIEYLIAGGPSSGEPPPSGD-NH2 (not fully specified (residue 17)) [Example 337]', 'y'),
  ('YXQGTFTSDXSQXLDKKAQXAFIEYLIAGGPSSGAPPPEGS (synthetic construct; SITE 2: note = 2-Aminoisobutyric Acid; SITE 10: note = 3-(4-Pyridyl)-L-alanine; SITE 13: note = alpha-methyl-leucine; SITE 17: note = Lysine is chemically modified through conjugation of the epsilon-amino group of the Lysine side chain with (gamma-Glu)2-CO-(CH2)16-CO2H; SITE 20:) [Example 969]', 'y'),
  ('YXQGTXTSDYXIXLDXKAQXXFIEXLLEGGPSSGEPPPS (synthetic construct; SITE 2: note = 2-Aminoisobutyric Acid; SITE 6: note = alpha-methyl-2-fluoro-L-phenylalanine; SITE 11: note = alpha-methyl-L-serine; SITE 13: note = alpha-methyl-leucine; SITE 16: note = L-ornithine; SITE 17: note = Lysine is chemically modified through conjugation of the epsilon) [Example 368]', 'n');
